Molecular target: His6-tagged BRAFV600E full-length (amino acids 2-766) (Homo sapiens, UniProt P15056, V600E)
Construct: BRAFV600E full-length (amino acids 2-766); His6; made in house
Sequence (P15056 2-766 V600E): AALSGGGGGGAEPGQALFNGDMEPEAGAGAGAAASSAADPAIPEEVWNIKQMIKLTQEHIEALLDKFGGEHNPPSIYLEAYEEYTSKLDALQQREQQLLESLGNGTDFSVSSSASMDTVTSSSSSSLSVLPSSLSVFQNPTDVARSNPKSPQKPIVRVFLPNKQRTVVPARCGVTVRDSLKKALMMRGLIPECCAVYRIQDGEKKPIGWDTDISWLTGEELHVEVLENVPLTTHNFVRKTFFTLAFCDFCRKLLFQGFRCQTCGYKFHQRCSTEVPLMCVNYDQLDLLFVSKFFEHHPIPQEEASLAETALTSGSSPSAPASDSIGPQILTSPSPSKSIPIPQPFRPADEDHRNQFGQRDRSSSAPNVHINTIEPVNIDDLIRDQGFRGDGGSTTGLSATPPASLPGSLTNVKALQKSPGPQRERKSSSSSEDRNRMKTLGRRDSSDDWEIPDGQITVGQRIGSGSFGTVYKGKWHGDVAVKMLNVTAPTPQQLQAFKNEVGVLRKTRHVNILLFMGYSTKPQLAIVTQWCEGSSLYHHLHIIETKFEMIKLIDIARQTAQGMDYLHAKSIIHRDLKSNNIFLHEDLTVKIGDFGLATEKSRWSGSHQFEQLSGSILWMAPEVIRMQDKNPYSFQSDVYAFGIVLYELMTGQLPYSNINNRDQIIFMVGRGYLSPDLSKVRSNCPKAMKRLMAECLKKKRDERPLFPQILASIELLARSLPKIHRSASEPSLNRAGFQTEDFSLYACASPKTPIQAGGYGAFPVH
Experiment: biochemical
Assay type: biochemical
Conditions: Table 1a; highest pIC50 for the one or more runs; read-out: B-Raf Activity
Experimental: Compounds of the present invention were tested for B-Raf protein serine kinase inhibitory activity in a B-Raf Accelerated MEK ATPase assay (BRAMA). […] The BRAMA assay is a high sensitivity assay which measures an intrinsic MEK-mediated ATP hydrolysis uncoupled from downstream ERK phosphorylation by coupling the formation of ADP to NADH oxidation through the enzymes pyruvate kinase and lactate dehydrogenase. […]
readoutName: IC50

>  <molecularString>
CC(C)c1nc(-c2cccc(NS(=O)(=O)c3cc(F)ccc3F)c2F)c(-c2ccnc(NCCCNS(C)(=O)=O)n2)s1

>  <readoutName>
IC50

>  <assayValue>
< 100 nM

$$$$
>  <molecularString>
CC(C)c1nc(-c2cccc(NS(=O)(=O)c3cc(F)ccc3F)c2F)c(-c2ccnc(NCCCNC(=O)CO)n2)s1

>  <readoutName>
IC50

>  <assayValue>
< 100 nM

$$$$

From: patent US8642759B2
